- test_system: PI3K (Homo sapiens, UniProt P42336)
- Construct: PI3 Kinase α IC50; other: PI3 Kinase α; other: PI3 Kinase α isoform, fluorescence polarization
- Sequence (P42336 whole entry, canonical isoform): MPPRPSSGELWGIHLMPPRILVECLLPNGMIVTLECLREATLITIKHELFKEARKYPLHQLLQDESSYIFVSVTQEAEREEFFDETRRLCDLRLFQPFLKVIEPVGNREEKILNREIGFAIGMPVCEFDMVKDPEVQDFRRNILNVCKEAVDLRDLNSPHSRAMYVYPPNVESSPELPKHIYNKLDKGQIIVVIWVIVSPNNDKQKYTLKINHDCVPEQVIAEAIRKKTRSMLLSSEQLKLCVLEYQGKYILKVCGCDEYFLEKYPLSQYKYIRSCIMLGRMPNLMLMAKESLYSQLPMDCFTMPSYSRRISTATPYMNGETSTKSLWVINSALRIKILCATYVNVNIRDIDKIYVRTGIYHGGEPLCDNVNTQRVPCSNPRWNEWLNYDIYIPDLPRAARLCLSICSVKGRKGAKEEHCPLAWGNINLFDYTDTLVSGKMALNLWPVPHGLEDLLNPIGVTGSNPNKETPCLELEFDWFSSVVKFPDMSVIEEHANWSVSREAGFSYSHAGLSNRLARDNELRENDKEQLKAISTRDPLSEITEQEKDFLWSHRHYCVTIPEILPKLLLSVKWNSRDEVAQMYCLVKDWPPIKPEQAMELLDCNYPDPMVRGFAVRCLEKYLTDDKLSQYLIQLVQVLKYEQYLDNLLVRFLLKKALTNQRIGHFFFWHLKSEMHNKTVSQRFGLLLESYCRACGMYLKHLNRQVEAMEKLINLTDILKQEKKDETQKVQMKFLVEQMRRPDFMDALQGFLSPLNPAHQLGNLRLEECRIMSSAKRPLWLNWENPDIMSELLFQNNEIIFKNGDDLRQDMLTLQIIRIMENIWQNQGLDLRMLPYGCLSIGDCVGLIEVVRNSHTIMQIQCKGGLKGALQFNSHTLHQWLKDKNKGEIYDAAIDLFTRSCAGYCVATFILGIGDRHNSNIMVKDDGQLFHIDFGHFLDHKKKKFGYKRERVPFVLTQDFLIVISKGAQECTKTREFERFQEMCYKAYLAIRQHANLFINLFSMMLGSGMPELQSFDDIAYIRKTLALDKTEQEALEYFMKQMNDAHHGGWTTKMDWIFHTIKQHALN
- assay_comment: Fluorescence polarization assay for PI3K
- Type: biochemical
- study_conditions: PI3 Kinase α; read-out: PI3 Kinase α IC50
pIC50: −log10 of the molar value.
Kind request: treat 6 as inclusive, so pIC50 at 6 or higher is condition met, anything lower is condition not met.

Exercise: Test whether the compound CNC(=O)Nc1ccc(-c2nc(N3C[C@@H]4C[C@H]3CO4)c3cnn(CC(F)(F)F)c3n2)cc1 records pIC50 of 6 or higher.
Solution: condition not met

Exercise: And what about the compound O=C(Nc1ccc(-c2nc(N3C4CCC3COC4)c3cnn(CC(F)(F)F)c3n2)cc1)Nc1cccnc1 ?
Solution: condition met

Exercise: What do you have for O=C(Nc1ccc(-c2nc(N3C4CCC3COC4)c3cnn(CC(F)(F)F)c3n2)cc1)OCCO ?
Solution: condition not met

Exercise: CCNC(=O)Nc1ccc(-c2nc(N3CC4CCC(C3)O4)c3cnn(C4CCN(C(=O)OC)CC4)c3n2)cc1 ?
Solution: condition not met

Exercise: Again, but for CC(C)C(=O)N1CCC(n2ncc3c(N4CC5CCC(C4)O5)nc(-c4ccc(NC(=O)NC5CC5)cc4)nc32)CC1
Solution: condition not met

Exercise: Cool, now CCn1ncc2c(N3CC4CCC(C3)O4)nc(-c3ccc(NC(=O)Nc4ccc(C(=O)NN5CCCC5)cc4)cc3)nc21
Solution: condition met

Every entry's value here was drawn from patent US8129371B2.
